Molecular target: Rhodopsin kinase GRK7 (Homo sapiens);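 further: mean percent inhibition of GRK7, profiled as part of the GSK PKIS screen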
Details: at 1 µM
MEASURED PROPERTY: inhibition (%)

> print(dat)
                                chem.smiles  measured
1  NCc1ccc(-c2nc(-c3ccc(Cl)c(O)c3)c(-c3ccncc3)[nH]2)cc1      2.84
2  Nc1ncnc2occ(-c3ccc(NC(=O)Nc4cc(C(F)(F)F)cc(C(F)(F)F)c4)cc3)c12      -8.6
3  c1cnn2ncc(-c3ccnc(Nc4ccc5c(c4)OCCO5)n3)c2c1      2.89

----------
Parameter inhibition: see the listing below.
Biological target: Tyrosine-protein kinase JAK2 (Homo sapiens) (UniProt O60674);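 further: mean percent inhibition of JAK2 activity, from the GSK PKIS kinase panel screen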
Sequence (O60674 whole entry): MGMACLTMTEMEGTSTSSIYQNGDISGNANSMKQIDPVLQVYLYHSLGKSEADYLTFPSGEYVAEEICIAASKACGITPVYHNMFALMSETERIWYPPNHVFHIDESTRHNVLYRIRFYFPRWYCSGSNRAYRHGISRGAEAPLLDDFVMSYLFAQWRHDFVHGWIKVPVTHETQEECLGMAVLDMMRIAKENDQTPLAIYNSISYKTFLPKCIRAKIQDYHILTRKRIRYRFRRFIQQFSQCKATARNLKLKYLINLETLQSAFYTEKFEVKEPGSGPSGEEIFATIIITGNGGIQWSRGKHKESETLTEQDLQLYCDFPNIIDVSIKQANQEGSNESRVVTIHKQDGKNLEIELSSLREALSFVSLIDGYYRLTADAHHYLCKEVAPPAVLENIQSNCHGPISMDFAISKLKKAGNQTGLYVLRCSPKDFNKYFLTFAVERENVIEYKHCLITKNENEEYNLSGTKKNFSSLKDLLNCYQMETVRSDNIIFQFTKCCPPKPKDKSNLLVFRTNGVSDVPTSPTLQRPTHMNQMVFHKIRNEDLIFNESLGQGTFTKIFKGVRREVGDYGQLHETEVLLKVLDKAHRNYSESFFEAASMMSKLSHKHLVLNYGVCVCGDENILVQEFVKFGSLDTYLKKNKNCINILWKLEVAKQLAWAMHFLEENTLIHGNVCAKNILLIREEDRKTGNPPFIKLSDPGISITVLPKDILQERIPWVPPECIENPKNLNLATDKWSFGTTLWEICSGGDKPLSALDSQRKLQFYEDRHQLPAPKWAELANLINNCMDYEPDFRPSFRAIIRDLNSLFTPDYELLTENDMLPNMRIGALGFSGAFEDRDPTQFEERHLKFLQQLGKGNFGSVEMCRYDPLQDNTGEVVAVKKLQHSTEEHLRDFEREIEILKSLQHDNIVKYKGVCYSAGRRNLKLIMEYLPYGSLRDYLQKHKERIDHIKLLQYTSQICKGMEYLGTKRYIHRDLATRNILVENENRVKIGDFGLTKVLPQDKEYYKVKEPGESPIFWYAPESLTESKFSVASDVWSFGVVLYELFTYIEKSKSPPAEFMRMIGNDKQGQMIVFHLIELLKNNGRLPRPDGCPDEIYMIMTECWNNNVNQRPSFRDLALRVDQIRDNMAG
Settings: at 0.1 µM
MEASURED PROPERTY: inhibition (%)

> print(dat)
                                    molecule  measured.property  measured
 1  COc1cccc(-n2ncc3c(N/N=C/c4cccc(F)c4)ncnc32)c1         inhibition      1.22
 2  Fc1cccc(COc2ccc(Nc3ncnc4cc(-c5ccc[nH]5)sc34)cc2Cl)c1         inhibition      1.26
 3  NC(=O)c1ccc(-c2nc(-c3ccccn3)c(-c3ccc4c(c3)OCO4)[nH]2)cc1         inhibition      1.02
 4  COc1cc2ncn(-c3cc(O[C@@H](C)c4ccccc4Cl)c(C(N)=O)s3)c2cc1OC         inhibition      2.38
 5      CNC(=O)c1cncc(/C=C/c2c(Cl)cccc2Cl)c1         inhibition      1.58
 6  O=C1NC(=O)C(c2cccc(Cl)c2)=C1Nc1ccc(O)c(Cl)c1         inhibition      0.65
 7  CCc1cccc(NC(=O)Nc2ccc(Oc3ccc4nc(NC(=O)OC)[nH]c4c3)cc2)c1         inhibition      1.07
 8  CCn1c(-c2nonc2N)nc2cnc(Oc3cccc(NC(=O)c4ccc(OCCN5CCOCC5)cc4)c3)cc21         inhibition      5.74
 9  NS(=O)(=O)c1ccc(N/N=C2\C(=O)Nc3ccc(C(=O)NCCc4c[nH]cn4)cc32)cc1         inhibition      2.27
10  COC(=O)Nc1nc2cc(Oc3ccc(NC(=O)Nc4cccc(C(=O)O)c4)cc3)ccc2[nH]1         inhibition     -0.28
11  CCn1c(-c2nonc2N)nc2c(C#CC(C)(C)O)nc(OC[C@@H](N)c3ccccc3)cc21         inhibition      0.33
12  COc1cc(C)c(NC(=O)CN(C)C)cc1Nc1nc(Nc2cccc(F)c2C(N)=O)c2cc[nH]c2n1         inhibition      0.46
13     Cc1cccc(-c2n[nH]cc2-c2ccc3ncccc3n2)n1         inhibition     -0.23
14   COc1ccc(COc2ccc(Cc3cnc(N)nc3N)cc2OC)cc1         inhibition      1.99
15  COc1ccc2cc(-c3c(-c4ccncc4)nc(-c4ccc([S+](C)[O-])cc4)n3C)ccc2c1 (stereo not given)         inhibition      0.86
16  CCCN1CCC(Oc2cc(Nc3nc(Nc4cccc(F)c4C(N)=O)c4cc[nH]c4n3)c(OC)cc2Cl)CC1         inhibition      0.96
17  NS(=O)(=O)c1cccc(-c2ccc3c(NC(=O)C4CC4)n[nH]c3c2)c1         inhibition     -0.14
18  Fc1cccc(COc2ccc(Nc3ncnc4sc(-c5cccs5)cc34)cc2Cl)c1         inhibition     -0.63
19  CCn1c(-c2nonc2N)nc2c(C#CC(C)(C)O)nc(CN3CCCC3)cc21         inhibition      0.37
20  COc1cc2c(cc1Nc1nc(N3CCc4ccccc43)c3cc[nH]c3n1)N(C(=O)CN(C)C)CC2         inhibition      1.69
